assayedSystem: GPR52 (Homo sapiens, UniProt Q9Y2T5)
Sequence (Q9Y2T5 whole entry): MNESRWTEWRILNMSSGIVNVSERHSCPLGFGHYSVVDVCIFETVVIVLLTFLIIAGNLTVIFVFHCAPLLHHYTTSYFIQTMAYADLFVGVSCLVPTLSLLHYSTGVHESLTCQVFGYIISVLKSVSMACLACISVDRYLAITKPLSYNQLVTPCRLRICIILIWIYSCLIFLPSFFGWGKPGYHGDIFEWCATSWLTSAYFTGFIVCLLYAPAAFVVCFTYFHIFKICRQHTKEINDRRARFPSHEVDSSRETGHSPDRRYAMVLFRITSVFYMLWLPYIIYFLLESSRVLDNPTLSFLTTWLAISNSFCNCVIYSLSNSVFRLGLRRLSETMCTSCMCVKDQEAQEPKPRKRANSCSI
protocol: intracellular cAMP HTRF assay
Format: cell-based
attributeMeasured: EC50 (nM)
Write down the numeric answer in nM and omit the unit.

Exercise: Item Cc1nn(-c2cccc3cc(Cc4cccc(C(F)(F)F)c4)sc23)cc1C(=O)NCCO [WO-459] has what recorded EC50?
Solution: 6

---

assayedSystem: GPR52 (Homo sapiens, UniProt Q9Y2T5)
protocol: inhibition of WO-[…])-stimulated cAMP
attributeMeasured: IC50 (µM)
Write down the numeric answer in µM and omit the unit.

Exercise: Item C=C1C(=O)O[C@@H]2/C=C(\C)CC3C=C(C[C@H](OC(=O)/C(C)=C\C)[C@@H]12)C(=O)O3 (mixture of isomers) [E7] has what recorded IC50?
Solution: 12
